- STUDY_SYSTEM: T1, ZIKV virus-like particles (Suriname Z1106033) (Zika virus, Suriname Z1106033, UniProt A0A0U4DG08, strain)
- T1 construct: also called ZIKV-VLP; VLP; source: bought: The Native Antigen Company
- ASSAY_METHOD_TEXT: BLI; Octet HTX; MAb 0.1 to 0.3 μg/mL amine-coupled to AR2G biosensor; ZIKV-VLP 0.1 to 1.0 μg/mL or ZIKV E protein 0.2 to 2 μg/mL in 1x kinetic buffer; association 900 s, dissociation 1,200 s; Langmuir 1:1 model; average of two runs
- STUDY_CONDITIONS: both partners purified
Recorded kon by entry
Field: numeric (M⁻¹ s⁻¹). Do not append units.

As a guide, the following entries are already answered.
- BINDER: "anti-ZIKV MAb 289-3 (antibody, V domains shown) VH: QEELEESGGDLVKPGASLTLTCKASGFSFSSGAYICWVRQAPGKGPEWIACIYTGDGRTYYANWAKRRFTISSSSSTTVALEMPSLTDADTATYFCARAIAVGAGYGVGNYFTLWGPGTLVTVSS VL: DIVMTQTPSSVSAAVGGTVTINCHASENIYGYLSWYQQKPGQPPKLLIYKASTLASGVPSRFKGSGAGTQFTLTITALECADAATYYCQSYYTSSSNADGSENAFGGGTEVVVE"
  QUANTITY_NAME: "kon"
  MEASUREMENT: 155000
- BINDER: "anti-ZIKV MAb 242-3 (antibody, V domains shown, recombinant rabbit IgG; 99% amino acid identity with 270-12) VH: QAQLEESGGDLVKPEGSLTLTCTASGFSFTDRHYMCWIRQAPGKGLEWIACVYPGSSGSTYYASWARGRFTISKTSSTTVTLRMTSLTAADTATYFCARSSYPDSSGYSYGMDLWGPGTLVTVSS VL: DIVMTQTPASVEAAVGGTVTIKCQASQNINSNLAWYQQKPGQRPKFLMYLTSKLASGVPSRFRGSGSGTQFTLTISDLECADAATYYCQTYYDISNYGYAFGGGTEVVVK"
  QUANTITY_NAME: "kon"
  MEASUREMENT: 202000

Now turn to the next binder.
So what's the measured kon for this one? anti-ZIKV MAb 306-2 (antibody, V domains shown) VH: QSLEESGGDLVKPGASLTLTCTASGFDFSDRYYMCWVRQAPGKGLEWIGCIYVGSGDTYYASWAKGRFTISRTSSTTVTLQMTRLTAADTATYFCARHPGTYFTLWGPGTLVTVSS VL: DVVMTQTPSSVSAAVGGTVTINCQASQNIVNNLAWYQQRPGQPPKLLIYDTSTLASGVPSRFKGSGSGTEFTLTISDLECADAATYYCQTYYYYNKIINGFGGGTEVVVK
160000
